biological target: T1, VISTA-His ECD (Sino Biological 13482-H08H) (human, UniProt Q9H7M9 33-194); assay: BLI (Octet K2), ratio of the pH 6.0 fold change to the pH 7.4 fold change
T1 construct: Bought protein; also called VISTA-ECD; not shown: His tag
Examples of binders with documented ΔKdis (pH 6.0)/ΔKdis (pH 7.4) follow.
MEASURED PROPERTY: ΔKdis (pH 6.0)/ΔKdis (pH 7.4)

- Antibody No. 474.1 with VL Y32H, VH Y32H, VH Y33H (antibody, V domains shown) VH: QVQLQESGPGLVKPSETLSLTCTVSGGSISSHHWSWIRQPPGKGLEWIGYIYYSGSTNYNPSLKSRVTISVDTSKSQFSLKLSSVTAADTAVYYCARDIPAFAFDIWGQGTMVIVSS VL: EIVLTQSPATLSLSPGERATLSCRASQSVSYHLAWYQQKPGQAPRLLIYDAFNRATGIPARFSGSGSGTDFTLTISSLEPEDFAVYYCQQRINWPLTFGGGTKVEIK: 2.4
- Antibody No. 474.1 with VL Y32H, VH Y33H (antibody, V domains shown) VH: QVQLQESGPGLVKPSETLSLTCTVSGGSISSYHWSWIRQPPGKGLEWIGYIYYSGSTNYNPSLKSRVTISVDTSKSQFSLKLSSVTAADTAVYYCARDIPAFAFDIWGQGTMVIVSS VL: EIVLTQSPATLSLSPGERATLSCRASQSVSYHLAWYQQKPGQAPRLLIYDAFNRATGIPARFSGSGSGTDFTLTISSLEPEDFAVYYCQQRINWPLTFGGGTKVEIK: 2.7
- Antibody No. 474.1 with VL Y32H, VH Y52H (antibody, V domains shown) VH: QVQLQESGPGLVKPSETLSLTCTVSGGSISSYYWSWIRQPPGKGLEWIGYIHYSGSTNYNPSLKSRVTISVDTSKSQFSLKLSSVTAADTAVYYCARDIPAFAFDIWGQGTMVIVSS VL: EIVLTQSPATLSLSPGERATLSCRASQSVSYHLAWYQQKPGQAPRLLIYDAFNRATGIPARFSGSGSGTDFTLTISSLEPEDFAVYYCQQRINWPLTFGGGTKVEIK: 3.4
